These entries and their values trace back to PubChem BioAssay (NCI).

tested on: DU-145 prostate; experiment: NCI tumour cell line growth inhibition, 48 h
experimentalReadout: GI50

Completed entries (count: 3):
Cc1cc([C@@H](C)Nc2ccccc2C(=O)O)c2nc(N3CCOCC3)cc(=O)n2c1: > 10000 nM
N#Cc1c(NC(=O)c2cccc(C(F)(F)F)c2)sc2c1CCC(=O)C2: 3300 nM
C=C1CCC2C(/C=C(\C)CCC1O)OC(=O)C2C (stereo not given): > 100000 nM

Exercise: What measured GI50 goes with CN(C)CC(=O)N1CCC(c2ccc(NC(=O)c3ncc(C#N)[nH]3)c(C3=CCCCC3)c2)CC1 ?
Solution: 12000 nM

Exercise: What measured GI50 goes with Brc1cccc(-c2cc(-c3ccc4c(c3)OCCO4)[nH]n2)c1 ?
Solution: 1980 nM

Exercise: What measured GI50 goes with CN=C(N)N/N=C(\c1ccccc1)c1ccc(Br)cc1 ?
Solution: 366 nM

Exercise: What measured GI50 goes with NC(N)=N/N=C(/c1ccccc1)c1ccc(F)cc1 ?
Solution: 330 nM

Exercise: What measured GI50 goes with COc1cc(/C=C\[N+](=O)[O-])ccc1O ?
Solution: 2410 nM

Exercise: What measured GI50 goes with COc1ccc(/C=C/C=C(/C#N)C(N)=S)cc1 ?
Solution: 32700 nM

Exercise: What measured GI50 goes with CC1(C)N=C(N)N=C(N)N1c1ccc(CCCCc2ccc(S(=O)(=O)F)cc2)cc1 ?
Solution: 833 nM
